All values here come from ChEMBL document CHEMBL1144391.

What follows is a record of IC50 for cGMP-specific 3',5'-cyclic phosphodiesterase (Homo sapiens).
Output spec: scalar in nM, unitless text.

What measured IC50 goes with Cc1nn(Cc2ccccc2)c(=O)c2nc(-c3cccnc3)n3nc(-c4ccccc4)cc3c12 ?
180

Further, for Cc1nn(Cc2ccccc2)c(=O)c2nc(CCCC(=O)O)n3nc(-c4ccccc4)cc3c12 ?
30

Same thing, different molecule: Cc1nn(Cc2ccccc2)c(=O)c2nc(CCc3ccccc3)n3nc(-c4ccccc4)cc3c12
980

Cc1nn(Cc2ccccc2)c(=O)c2nc(C)n3nc(-c4ccccc4)cc3c12 , same question.
160

Now this one: Cc1nn(Cc2cccc(OP(=O)(O)O)c2)c(=O)c2nc(C)n3nc(-c4ccccc4)cc3c12
230

Could you do the same for Cc1cccc(-c2nc3c(=O)n(Cc4ccccc4)nc(C)c3c3cc(-c4ccccc4)nn23)c1 , please?
75

Another: Cc1nn(Cc2ccccc2)c(=O)c2nc(-c3ccccn3)n3nc(-c4ccccc4)cc3c12
81

Query COCc1nc2c(=O)n(Cc3ccccc3)nc(C)c2c2cc(-c3ccccc3)nn12 next
100

###

- Assayed Target: Phosphodiesterase 6 (Bos taurus) (UniProt P23439+P16586+P11541+P22571+P04972+Q95142)
- Test Description: Percentage inhibition of bovine Phosphodiesterase 6 at 2 uM (n=2-3)
- Type: protein assay
Property: inhibition (%)
Only the number, expressed in %, is required.

I would be grateful if you could share the reported inhibition for Cc1nn(Cc2ccccc2)c(=O)c2nc(C)n3nc(-c4ccccc4)cc3c12 .
25

Now consider Cc1cccc(-c2nc3c(=O)n(Cc4ccccc4)nc(C)c3c3cc(-c4ccccc4)nn23)c1 .
11.5

How about CCC(CC)c1nc2c(=O)n(Cc3ccccc3)nc(C)c2c2cc(-c3ccccc3)nn12 ?
37.4

What do we get for CCC(C)c1nc2c(=O)n(Cc3ccccc3)nc(C)c2c2cc(-c3ccccn3)nn12 (centres undefined) ?
34.6

Same question for Cc1nn(Cc2ccccc2)c(=O)c2nc(CC3CCCCC3)n3nc(-c4ccccc4)cc3c12 please.
19.2

How about CCC(C)c1nc2c(=O)n(Cc3cccc(OP(=O)(O)O)c3)nc(C)c2c2cc(-c3ccccc3)nn12 (centres undefined) ?
66.9

Another compound to check: Cc1nn(Cc2ccccc2)c(=O)c2nc(-c3ccncc3)n3nc(-c4ccccc4)cc3c12
-4.8

Moving on to CCOCc1nc2c(=O)n(Cc3ccccc3)nc(C)c2c2cc(-c3ccccc3)nn12
45

# iterate: Cc1nn(Cc2ccccc2)c(=O)c2nc(-c3cccnc3)n3nc(-c4ccccc4)cc3c12
17.7

###

- Assayed Target: Phosphodiesterase 6 (Bos taurus) (UniProt P23439+P16586+P11541+P22571+P04972+Q95142)
- Test Description: Percentage inhibition of bovine Phosphodiesterase 6 at 2 uM (n=2-3)
- Format: protein assay
Can you tell me inhibition for the items I'm about to list?
Lab book: enter the figure in %, no units written.

For the compound CSCc1nc2c(=O)n(Cc3ccccc3)nc(C)c2c2cc(-c3ccccc3)nn12 , what inhibition is on record?
38.1

Same thing, different compound: Cc1nn(Cc2ccccc2)c(=O)c2nc(C)n3nc(-c4ccc(N)cc4)cc3c12
4.5

Would you kindly repeat that for Cc1nn(Cc2ccccc2)c(=O)c2nc(-c3ccccn3)n3nc(-c4ccccc4)cc3c12 ?
21.3

Same for CCC(C)c1nc2c(=O)n(Cc3ccccc3)nc(C)c2c2cc(-c3ccccc3)nn12 (centres undefined)
42.5

Next compound up: Cc1nn(Cc2ccc([N+](=O)[O-])cc2)c(=O)c2nc(C)n3nc(-c4ccccc4)cc3c12
10.4

Same thing, different compound: Cc1nn(Cc2ccccc2)c(=O)c2nc(Cc3ccncc3)n3nc(-c4ccccc4)cc3c12
20.4

Also Cc1nn(Cc2ccccc2)c(=O)c2nc(Cc3ccccc3)n3nc(-c4ccccc4)cc3c12 ?
13.6

Next up: COCc1nc2c(=O)n(Cc3ccccc3)nc(C)c2c2cc(-c3ccccc3)nn12
53.3

Do the same for Cc1nn(Cc2ccccc2)c(=O)c2nc(CC3CCCC3)n3nc(-c4ccccc4)cc3c12 please
4.2

###

Provide the recorded inhibition for the entries that follow.
- Assayed Target: UniProt O76074
- Test Description: Percentage inhibition of human Phosphodiesterase 5 at 2 uM (n=2-3)
Dear colleague, please return just the value in %, with no unit written.

Recall the recorded inhibition for Cc1nn(Cc2ccccc2)c(=O)c2nc(CC3CCCC3)n3nc(-c4ccccc4)cc3c12 with UniProt O76074 and state it.
18.2

// next record Cc1nn(Cc2ccccc2)c(=O)c2nc(C)n3nc(C(C)(C)C)cc3c12
31

Query Cc1nn(Cc2ccccc2)c(=O)c2nc(Cc3ccccc3)n3nc(-c4ccccc4)cc3c12 next
22.5

What about Cc1nn(Cc2ccccc2)c(=O)c2nc(CC3CCCCC3)n3nc(-c4ccccc4)cc3c12 ?
33.6

Could you do the same for Cc1nn(Cc2ccccc2)c(=O)c2nc(-c3ccncc3)n3nc(-c4ccccc4)cc3c12 , please?
69

Also Cc1ccccc1-c1nc2c(=O)n(Cc3ccccc3)nc(C)c2c2cc(-c3ccccc3)nn12 ?
55.1

###

- Assayed Target: Phosphodiesterase 6
- Test Description: Inhibition of bovine Phosphodiesterase 6 (n=2-3)
- Type: protein assay, Bos taurus
For each of the compounds below, state its IC50.
// units = nM; emit number, no label

Name the recorded IC50 for Cc1nn(Cc2ccccc2)c(=O)c2nc(CCc3ccccc3)n3nc(-c4ccccc4)cc3c12 .
30000

And for Cc1nn(Cc2ccccc2)c(=O)c2nc(/C=C/C(=O)O)n3nc(-c4ccccc4)cc3c12 ?
580

# iterate: Cc1nn(Cc2ccccc2)c(=O)c2nc(CCCCC(=O)O)n3nc(-c4ccccc4)cc3c12
63

Then this compound: Cc1nn(Cc2ccccc2)c(=O)c2nc(CCCC(=O)O)n3nc(-c4ccccc4)cc3c12
110

Also Cc1nn(Cc2ccccc2)c(=O)c2nc(CCC(=O)O)n3nc(-c4ccccc4)cc3c12 , if possible.
590

Then this compound: Cc1nn(Cc2ccccc2)c(=O)c2nc(-c3ccccc3)n3nc(-c4ccccc4)cc3c12
2800

Next: Cc1nn(CC2CCCCC2)c(=O)c2nc(C)n3nc(-c4ccccc4)cc3c12
11000

Try the compound Cc1nn(Cc2ccccc2)c(=O)c2nc(C)n3nc(-c4ccc5c(c4)OCO5)cc3c12
78000

Now this one: Cc1nn(Cc2ccc(N)cc2)c(=O)c2nc(C)n3nc(-c4ccccc4)cc3c12
2000

Ok, now Cc1nn(Cc2ccccc2)c(=O)c2nc(C)n3nc(-c4ccccn4)cc3c12
10000

###

- Test Description: Half-life was observed
- Type: ADME
Property: half-life

Which measured half-life value corresponds to CN1CC(=O)N2[C@H](c3ccc4c(c3)OCO4)c3[nH]c4ccccc4c3C[C@@H]2C1=O ?
> 17 h
